target: Potassium-transporting ATPase (Rattus norvegicus); experiment: The compound was evaluated for the inhibition of gastric H+/K+ ATPase; format: tissue-based, Stomach
Sequence (P09626 whole entry): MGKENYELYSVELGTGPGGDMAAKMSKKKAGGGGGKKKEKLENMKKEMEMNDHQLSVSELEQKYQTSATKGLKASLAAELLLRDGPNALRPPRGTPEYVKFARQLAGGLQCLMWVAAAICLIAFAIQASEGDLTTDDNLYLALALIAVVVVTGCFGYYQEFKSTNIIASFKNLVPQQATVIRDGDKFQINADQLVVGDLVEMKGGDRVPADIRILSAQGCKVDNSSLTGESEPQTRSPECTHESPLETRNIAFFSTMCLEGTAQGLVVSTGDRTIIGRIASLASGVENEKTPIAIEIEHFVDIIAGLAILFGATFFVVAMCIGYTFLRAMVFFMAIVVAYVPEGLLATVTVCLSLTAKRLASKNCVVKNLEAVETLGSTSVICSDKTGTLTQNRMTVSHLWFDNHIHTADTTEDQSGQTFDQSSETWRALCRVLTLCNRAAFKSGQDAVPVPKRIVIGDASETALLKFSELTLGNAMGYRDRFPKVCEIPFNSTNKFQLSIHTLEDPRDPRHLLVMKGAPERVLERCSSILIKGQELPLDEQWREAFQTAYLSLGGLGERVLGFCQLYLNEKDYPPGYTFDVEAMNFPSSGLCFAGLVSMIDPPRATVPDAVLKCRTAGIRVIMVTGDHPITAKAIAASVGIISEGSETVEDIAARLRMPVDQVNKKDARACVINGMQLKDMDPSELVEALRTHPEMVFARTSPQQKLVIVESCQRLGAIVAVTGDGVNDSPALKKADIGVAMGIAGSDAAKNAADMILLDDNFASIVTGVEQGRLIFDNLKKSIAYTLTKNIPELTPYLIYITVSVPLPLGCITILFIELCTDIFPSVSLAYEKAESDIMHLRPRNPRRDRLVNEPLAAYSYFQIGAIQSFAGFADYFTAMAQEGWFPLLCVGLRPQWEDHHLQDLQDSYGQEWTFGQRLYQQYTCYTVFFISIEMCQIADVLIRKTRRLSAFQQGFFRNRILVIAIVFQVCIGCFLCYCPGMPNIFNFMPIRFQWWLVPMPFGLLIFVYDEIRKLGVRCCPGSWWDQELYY
Sequence (P18598 whole entry, further chain): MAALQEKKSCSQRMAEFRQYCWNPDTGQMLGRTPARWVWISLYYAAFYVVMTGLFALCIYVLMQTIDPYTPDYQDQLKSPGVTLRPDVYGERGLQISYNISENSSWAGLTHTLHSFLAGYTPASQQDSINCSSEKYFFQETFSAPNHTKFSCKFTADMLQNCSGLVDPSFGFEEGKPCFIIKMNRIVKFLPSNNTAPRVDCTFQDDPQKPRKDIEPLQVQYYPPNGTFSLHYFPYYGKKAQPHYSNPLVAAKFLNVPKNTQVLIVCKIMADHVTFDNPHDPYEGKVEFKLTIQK
endpoint: IC50 (µM)
Expressed in µM, but write only the number.

Please fill in: IC50 reported for COc1ccccc1N1CCc2c(Cl)nc3c(OC)cccc3c21 = 10.7

====

target: UniProt:P09626; test: Inhibition of rat isolated gastric (H(+)/K(+))-ATPase.; assay type: tissue-based, Stomach
endpoint: pIC50
Quick note: pIC50 values are minus log10 of concentrations in mol/L.

CNc1nc2c(OC)cccc2c2c1CCN2c1ccccc1C = 6.60
Cc1ccccc1N1CCc2c(N)nc3c(C)cccc3c21 = 6.66
CNc1nc2c(C)cccc2c2c1CCN2c1ccccc1C = 6.74
Cc1ccccc1N1CCc2c1nc1c(C)cccc1c2Nc1ccccc1 = 5.96
COc1ccccc1N1CCc2c1c1cccc(OC)c1[nH]c2=O = 4.48
CNc1nc2c(C)cccc2c2c1ccn2-c1ccccc1C = 6.54
Cc1ccccc1N1CCc2cnc3c(C)cccc3c21 = 6.01
Cc1ccccc1N1CCc2c(CO)nc3ccccc3c21 = 5.91
Cc1ccccc1-n1ccc2c(NCCCO)nc3c(C)cccc3c21 = 6.39
COc1ccccc1N1CCc2c(N)nc3c(OC)cccc3c21 = 6.36

Tested on UniProt:P09626: CCOC(=O)c1cc(Nc2ccccc2C)c2cccc(OC)c2n1 . Observed pIC50: 6.07

pIC50 on UniProt:P09626 for Cc1ccccc1-n1ccc2c(NCCO)nc3c(C)cccc3c21 is 6.77
